Target: JAK2 (Homo sapiens)
Construct: endogenous in cells
Assay: Kinobeads assay, JAK2 (competition binding in mixed Molt4/Ramos cell lysate, dot blot detection)
Settings: read-out: JAK2 Band (Kinobeads assay potency, IC50)
measured-parameter: IC50

1. OCCn1cc(Nc2ncc(Cl)c(NCc3ccc(O)cc3)n2)cn1 : 100 to 1000 nM
2. NS(=O)(=O)c1ccc(CNc2nc(Nc3cnn(CCO)c3)ncc2F)cc1 : > 10000 nM
3. COc1ccc(F)c(CNc2ccnc(Nc3cnn(CC(=O)N[C@@H]4C[C@@H]4F)c3)n2)c1F : 1000 to 10000 nM
4. CS(=O)(=O)NCc1cccc(CNc2nc(Nc3cnn(CCO)c3)ncc2F)c1 : 1000 to 10000 nM
5. CC(C)NC(=O)Cn1cc(Nc2nccc(NCc3cccc(OC(F)F)c3)n2)cn1 : > 10000 nM
6. Cn1cc(Nc2ncc(Cl)c(NCc3cccc(C#N)c3)n2)cn1 : 1000 to 10000 nM
7. OCCn1cc(Nc2ncc(Cl)c(NCc3ccccn3)n2)cn1 : 100 to 1000 nM
8. CNC(=O)Cn1cc(Nc2ncc(Cl)c(NCc3ccccc3)n2)cn1 : 1000 to 10000 nM
9. OCCn1cc(Nc2ncc(Cl)c(NCc3c(F)cc(F)cc3F)n2)cn1 : 100 to 1000 nM
10. O=C(Cn1cc(Nc2ncc(F)c(NCc3c(Cl)cccc3Cl)n2)cn1)N1CCOCC1 : 1000 to 10000 nM
11. C[C@H](CO)NC(=O)Cn1cc(Nc2nccc(NCc3c(F)cccc3Cl)n2)cn1 : 1000 to 10000 nM
12. CN(C)C(=O)Cn1cc(Nc2ncc(F)c(NCc3cccc(OC(F)F)c3)n2)cn1 : 1000 to 10000 nM
13. CCOC(=O)Cn1cc(Nc2ncc(F)c(NCc3c(F)cc(F)cc3F)n2)cn1 : 1000 to 10000 nM
14. COc1ccc(F)c(CNc2nc(Nc3cnn(CC(=O)NC(C)C)c3)ncc2Cl)c1F : 1000 to 10000 nM
15. CC1(C)COCCN1C(=O)Cn1cc(Nc2nccc(NCc3c(F)cc(F)cc3F)n2)cn1 : > 10000 nM
16. Fc1ccc(F)c(CNc2nc(Nc3cnn(CC(F)F)c3)ncc2Cl)c1F : 100 to 1000 nM
17. COc1ccc(F)c(CNc2nc(Nc3cnn(CC(=O)N(C)C(C)C)c3)ncc2F)c1F : 1000 to 10000 nM
18. CC(C)NC(=O)Cn1cc(Nc2nccc(NCc3c(Cl)cccc3Cl)n2)cn1 : > 10000 nM
19. COc1ccc(F)c(CNc2ccnc(Nc3cnn(CC(=O)N[C@@H](C)CO)c3)n2)c1F : 1000 to 10000 nM
20. CN(CC#N)C(=O)Cn1cc(Nc2ncc(Cl)c(NCc3ccccc3)n2)cn1 : 1000 to 10000 nM
21. OCCn1cc(Nc2ncc(Cl)c(NCc3cccnc3)n2)cn1 : 1000 to 10000 nM
22. Cc1ccc(F)c(CNc2ccnc(Nc3cnn(CC(=O)N[C@@H](C)CO)c3)n2)c1F : 1000 to 10000 nM
23. Cn1cc(Nc2ncc(Cl)c(NCc3c(F)cccc3F)n2)cn1 : 1000 to 10000 nM
24. O=C(Cn1cc(Nc2nccc(NCc3c(F)cc(F)cc3F)n2)cn1)NC1CC1 : 1000 to 10000 nM
25. O=C(O)Cn1cc(Nc2ncc(Cl)c(NCc3cc(F)cc(F)c3)n2)cn1 : 100 to 1000 nM

----------
Each entry below lists one item and its recorded IC50 value.
Biological target: JAK2 (Homo sapiens, UniProt O60674)
Construct: endogenous in cells
Sequence (O60674 whole entry): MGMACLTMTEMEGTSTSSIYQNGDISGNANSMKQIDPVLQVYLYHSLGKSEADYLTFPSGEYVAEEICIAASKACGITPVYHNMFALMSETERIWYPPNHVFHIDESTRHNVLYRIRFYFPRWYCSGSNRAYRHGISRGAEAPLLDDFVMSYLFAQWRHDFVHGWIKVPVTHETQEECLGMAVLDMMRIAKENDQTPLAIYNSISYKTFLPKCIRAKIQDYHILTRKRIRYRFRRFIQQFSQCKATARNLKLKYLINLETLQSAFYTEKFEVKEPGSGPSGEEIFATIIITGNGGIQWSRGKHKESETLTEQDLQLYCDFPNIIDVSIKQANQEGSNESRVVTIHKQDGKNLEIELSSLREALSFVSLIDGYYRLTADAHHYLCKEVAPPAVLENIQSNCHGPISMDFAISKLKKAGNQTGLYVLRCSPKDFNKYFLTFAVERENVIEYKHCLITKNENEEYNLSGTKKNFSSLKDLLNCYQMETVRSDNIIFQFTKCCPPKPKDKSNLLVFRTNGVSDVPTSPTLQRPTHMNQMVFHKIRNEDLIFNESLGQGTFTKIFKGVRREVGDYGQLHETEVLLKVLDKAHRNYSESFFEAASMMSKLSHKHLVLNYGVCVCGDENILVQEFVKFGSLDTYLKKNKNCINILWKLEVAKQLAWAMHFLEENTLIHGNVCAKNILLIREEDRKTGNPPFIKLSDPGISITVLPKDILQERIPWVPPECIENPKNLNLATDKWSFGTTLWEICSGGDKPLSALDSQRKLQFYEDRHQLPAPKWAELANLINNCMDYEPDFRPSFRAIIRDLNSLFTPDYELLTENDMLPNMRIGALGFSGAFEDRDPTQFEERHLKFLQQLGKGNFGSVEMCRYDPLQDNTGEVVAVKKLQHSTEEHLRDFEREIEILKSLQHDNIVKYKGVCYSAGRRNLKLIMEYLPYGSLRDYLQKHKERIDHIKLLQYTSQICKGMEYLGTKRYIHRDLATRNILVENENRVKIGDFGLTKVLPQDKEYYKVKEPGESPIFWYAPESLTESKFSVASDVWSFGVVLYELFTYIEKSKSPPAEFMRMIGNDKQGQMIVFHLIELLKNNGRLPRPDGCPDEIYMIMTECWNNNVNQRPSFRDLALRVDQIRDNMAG
Assay: Kinobeads assay, JAK2 (competition binding in mixed Molt4/Ramos cell lysate, dot blot detection)
Details: read-out: JAK2 Band (Kinobeads assay potency, IC50)
measured-parameter: IC50

1. C[C@@H](CO)NC(=O)Cn1cc(Nc2nccc(NCc3c(F)cncc3F)n2)cn1 : > 10000 nM
2. Cc1cnc(Nc2cnn(CC(=O)O)c2)nc1NCc1c(F)ccc(F)c1F : 100 to 1000 nM
3. O=C(Cn1cc(Nc2ncc(F)c(NCc3cccc(OC(F)F)c3)n2)cn1)NC1CC1 : > 10000 nM
4. CS(=O)(=O)NCc1cccc(CNc2nc(Nc3cnn(CC(=O)N4CCC[C@@H]4C#N)c3)ncc2Cl)c1 : 1000 to 10000 nM
5. CS(=O)(=O)c1ccc(F)cc1CNc1nc(Nc2cnn(CCO)c2)ncc1F : 100 to 1000 nM
6. CC1(C)CN(C(=O)Cn2cc(Nc3ncc(F)c(NCc4c(F)cc(F)cc4F)n3)cn2)CCO1 : 1000 to 10000 nM
7. CN(C)CCNC(=O)Cn1cc(Nc2ncc(Cl)c(NCc3ccccc3)n2)cn1 : 100 to 1000 nM

----------
Target: TYK2 (Homo sapiens)
Construct: endogenous in cells; host or cells: Molt4 (ATCC CRL-1582) and Ramos (ATCC CRL-1596), mixed lysate 1:2
Assay: Kinobeads assay, TYK2 (competition binding in mixed Molt4/Ramos cell lysate, dot blot detection)
Conditions: Kinobeads assay, Molt4/Ramos lysate; read-out: TYK2 Band (Kinobeads assay potency, IC50)
Consider the following compounds and their measured IC50 readings.
measured-parameter: IC50

1) Cn1cc(Nc2ncc(F)c(NCc3c(F)cc(S(N)(=O)=O)cc3F)n2)cn1 : 10 to 100 nM
2) CNS(=O)(=O)c1ccccc1CNc1nc(Nc2cnn(C)c2)ncc1Cl : 100 to 1000 nM
3) CCC(CC)NC(=O)Cn1cc(Nc2ncc(F)c(NCc3c(F)cc(F)cc3F)n2)cn1 : 10 to 100 nM
4) CNC(=O)Cn1cc(Nc2ncc(Cl)c(NCc3cccc(F)c3)n2)cn1 : 100 to 1000 nM
5) COc1ccc(F)c(CNc2nc(Nc3cnn(CC(=O)N4CCOCC4)c3)ncc2Cl)c1F : 10 to 100 nM
6) CNC(=O)Cn1cc(Nc2ncc(C)c(NCc3c(F)cccc3F)n2)cn1 : 10 to 100 nM
7) CCOC(=O)Cn1cc(Nc2ncc(Cl)c(NCc3ccccc3)n2)cn1 : 100 to 1000 nM
8) Cn1cc(Nc2ncc(Cl)c(NCc3c(F)cccc3C(F)(F)F)n2)cn1 : 10 to 100 nM
9) COc1c(F)cc(F)cc1CNc1nc(Nc2cnn(C)c2)ncc1Cl : 100 to 1000 nM
10) O=C(Cn1cc(Nc2nccc(NCc3c(F)cc(F)cc3F)n2)cn1)NCCF : 10 to 100 nM
11) O=C(Cn1cc(Nc2nccc(NCc3c(F)cc(F)cc3F)n2)cn1)N[C@H]1C[C@H]1F : 10 to 100 nM
12) Cc1cnc(Nc2cnn(CC(=O)NC(C)C)c2)nc1NCc1c(F)cc(F)cc1F : ≤ 10 nM

----------
Biological target: TYK2 (Homo sapiens, UniProt P29597)
Construct: endogenous in cells; host or cells: Molt4 (ATCC CRL-1582) and Ramos (ATCC CRL-1596), mixed lysate 1:2
Sequence (P29597 whole entry): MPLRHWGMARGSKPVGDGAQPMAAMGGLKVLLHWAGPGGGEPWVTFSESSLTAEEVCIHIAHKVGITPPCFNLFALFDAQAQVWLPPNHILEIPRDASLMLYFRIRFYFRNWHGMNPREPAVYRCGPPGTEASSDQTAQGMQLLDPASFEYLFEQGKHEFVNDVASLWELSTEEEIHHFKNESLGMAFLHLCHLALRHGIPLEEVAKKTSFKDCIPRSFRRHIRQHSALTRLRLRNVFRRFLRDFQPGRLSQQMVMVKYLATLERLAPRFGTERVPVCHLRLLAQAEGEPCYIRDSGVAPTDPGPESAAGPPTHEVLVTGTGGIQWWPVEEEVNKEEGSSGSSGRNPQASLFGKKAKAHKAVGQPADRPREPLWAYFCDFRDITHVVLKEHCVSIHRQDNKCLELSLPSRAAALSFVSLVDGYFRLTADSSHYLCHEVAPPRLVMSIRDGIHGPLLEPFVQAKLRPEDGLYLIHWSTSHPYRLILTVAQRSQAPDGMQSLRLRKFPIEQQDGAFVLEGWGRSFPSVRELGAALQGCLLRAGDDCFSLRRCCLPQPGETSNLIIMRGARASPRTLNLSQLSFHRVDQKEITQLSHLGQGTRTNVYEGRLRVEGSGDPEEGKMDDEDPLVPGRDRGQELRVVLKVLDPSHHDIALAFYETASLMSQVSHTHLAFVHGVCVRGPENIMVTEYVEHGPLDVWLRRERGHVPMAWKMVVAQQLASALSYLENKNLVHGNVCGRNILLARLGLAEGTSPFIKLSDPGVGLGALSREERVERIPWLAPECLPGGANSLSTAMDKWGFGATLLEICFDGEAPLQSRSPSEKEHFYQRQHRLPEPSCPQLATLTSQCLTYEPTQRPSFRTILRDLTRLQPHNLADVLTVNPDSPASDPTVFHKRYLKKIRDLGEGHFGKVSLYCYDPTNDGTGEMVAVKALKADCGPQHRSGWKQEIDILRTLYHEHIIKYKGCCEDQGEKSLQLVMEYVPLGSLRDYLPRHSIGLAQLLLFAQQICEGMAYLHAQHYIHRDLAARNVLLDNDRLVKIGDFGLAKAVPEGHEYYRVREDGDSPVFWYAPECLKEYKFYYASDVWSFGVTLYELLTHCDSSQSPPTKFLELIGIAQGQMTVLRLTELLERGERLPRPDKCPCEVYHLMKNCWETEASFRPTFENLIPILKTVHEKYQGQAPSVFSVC
Assay: Kinobeads assay, TYK2 (competition binding in mixed Molt4/Ramos cell lysate, dot blot detection)
Conditions: Kinobeads assay, Molt4/Ramos lysate; read-out: TYK2 Band (Kinobeads assay potency, IC50)
measured-parameter: IC50

1) CC(C)NC(=O)Cn1cc(Nc2ncc(F)c(NCc3cccc(OC(F)F)c3)n2)cn1 : 10 to 100 nM
2) COc1c(F)cc(F)cc1CNc1nc(Nc2cnn(CC(=O)NC3CC3)c2)ncc1C : 10 to 100 nM
3) CC(CO)n1cc(Nc2ncc(Cl)c(NCc3ccccc3)n2)cn1 (stereo not drawn) : 100 to 1000 nM
4) CS(=O)(=O)c1ccc(F)c(CNc2nc(Nc3cnn(CCO)c3)ncc2F)c1 : 10 to 100 nM
5) COc1ccc(F)c(CNc2nc(Nc3cnn(C)c3)ncc2Cl)c1F : 10 to 100 nM
6) Cc1cnc(Nc2cnn(CC(=O)N3CCOCC3)c2)nc1NCc1ccccc1 : 10 to 100 nM
7) Cc1cnc(Nc2cnn(CC(=O)N(C)C)c2)nc1NCc1c(F)cc(F)cc1F : 10 to 100 nM
8) CS(=O)(=O)c1ccc(F)cc1CNc1nc(Nc2cnn(CCO)c2)ncc1F : 10 to 100 nM
9) O=C(Cn1cc(Nc2ncc(Cl)c(NCc3cc(F)cc(F)c3)n2)cn1)N1CCOCC1 : 10 to 100 nM
10) CS(=O)(=O)c1ccccc1CNc1nc(Nc2cnn(CC(F)F)c2)ncc1Cl : 1000 to 10000 nM
11) C[C@H](CO)NC(=O)Cn1cc(Nc2nccc(NCc3c(F)cncc3F)n2)cn1 : 10 to 100 nM
12) Cc1cnc(Nc2cnn(CC(N)=O)c2)nc1NCc1ccccc1S(C)(=O)=O : 100 to 1000 nM
13) Cc1cnc(Nc2cnn(CC(F)F)c2)nc1NCc1c(F)ccc(F)c1F : 10 to 100 nM
14) CS(=O)(=O)c1ccc(F)c(CNc2nc(Nc3cn[nH]c3)ncc2F)c1 : 10 to 100 nM
15) CS(=O)(=O)c1ccccc1CNc1nc(Nc2cnn(CCO)c2)ncc1F : 100 to 1000 nM
16) OCCn1cc(Nc2ncc(F)c(NCc3c(F)ccc(F)c3F)n2)cn1 : ≤ 10 nM
17) Cn1cc(Nc2ncc(F)c(NCc3c(F)c(F)cc(F)c3F)n2)cn1 : 100 to 1000 nM
18) N#CCOc1cccc(CNc2nc(Nc3cnn(CC(N)=O)c3)ncc2Cl)c1 : 100 to 1000 nM
19) O=C(Cn1cc(Nc2nccc(NCc3c(F)cccc3Cl)n2)cn1)N1CCOCC1 : ≤ 10 nM
20) COc1ccc(F)c(CNc2ccnc(Nc3cnn(CC(=O)NC4CC4)c3)n2)c1F : ≤ 10 nM
21) CC(C#N)NC(=O)Cn1cc(Nc2nccc(NCc3c(F)cc(F)cc3F)n2)cn1 (stereo not drawn) : 10 to 100 nM
22) OCCn1cc(Nc2ncc(F)c(NCc3cccc(F)c3F)n2)cn1 : 100 to 1000 nM
23) Cc1cnc(Nc2cnn(CC(F)F)c2)nc1NCc1ccccc1S(C)(=O)=O : 1000 to 10000 nM
24) CS(=O)(=O)c1cccc(CNc2nc(Nc3cnn(CC(=O)NC4CC4)c3)ncc2Cl)c1 : 10 to 100 nM
25) CC(C)NC(=O)Cn1cc(Nc2nccc(NCc3c(Cl)ccc(Cl)c3F)n2)cn1 : ≤ 10 nM
26) CNC(=O)Cn1cc(Nc2ncc(Cl)c(NCc3cc(Br)cc(F)c3F)n2)cn1 : 100 to 1000 nM
27) Fc1cccc(CNc2nc(Nc3cn[nH]c3)ncc2Cl)c1C(F)(F)F : 10 to 100 nM
28) Cn1cc(Nc2ncc(Cl)c(NCc3cccnc3F)n2)cn1 : 100 to 1000 nM
29) CNC(=O)Cn1cc(Nc2ncc(F)c(NCc3cc(S(C)(=O)=O)ccc3OC)n2)cn1 : 10 to 100 nM
30) CC(C)(C)OC(=O)N1CC2(CN(C(=O)Cn3cc(Nc4ncc(Cl)c(NCc5ccccc5)n4)cn3)C2)C1 : 100 to 1000 nM
31) C[C@H]1COCCN1C(=O)Cn1cc(Nc2ncc(F)c(NCc3c(F)cc(F)cc3F)n2)cn1 : ≤ 10 nM
32) O=C(Cn1cc(Nc2ncc(Cl)c(NCc3ccccn3)n2)cn1)N1CCOCC1 : 100 to 1000 nM
33) O=C(Cn1cc(Nc2nccc(NCc3c(F)cc(F)cc3F)n2)cn1)N[C@@H]1CCOC1 : 10 to 100 nM

# credit: patent US9296725B2
